- System: large crabgrass (Digitaria sanguinalis, DIGSA)
- PROTOCOL_DESCRIPTION: Post-emerge test, greenhouse herbicide activity screening
- Assay type: in vivo
- REPORTED_CONDITIONS: Rate 250 g ai/ha; rating scale 0-100 (0 no damage, 100 complete death); 14 days after application
Hi there, I'd appreciate the recorded Post-emerge Herbicidal Activity, phytotoxicity rating DIGSA for every entry that follows.
Give bare numbers.

Sample answers from the record:
# COMPOUND, TESTED_SYSTEM, REPORTED_VALUE
measured = [
    ("CCOC(=O)C(Cl)(CC(=O)OC)Cc1c(OC)c(Cl)cc(F)c1-n1c(=O)cc(C(F)(F)F)n(C)c1=O (centres unmarked)", "large crabgrass (Digitaria sanguinalis, DIGSA)", 50),
    ("CCOCCOC(=O)C(Cl)Cc1c(OC)c(Cl)cc(F)c1-n1c(=O)cc(C(F)(F)F)n(C)c1=O (centres unmarked)", "large crabgrass (Digitaria sanguinalis, DIGSA)", 100),
    ("CCCOC(=O)C(C)(Cl)Cc1c(OC)c(Cl)cc(F)c1-n1c(=O)cc(C(F)(F)F)n(C)c1=O (centres unmarked)", "large crabgrass (Digitaria sanguinalis, DIGSA)", 95),
    ("COc1c(Cl)cc(F)c(-n2c(=O)cc(C(F)(F)F)n(C)c2=O)c1CC(Cl)C(=O)OCC(F)(F)F (centres unmarked)", "large crabgrass (Digitaria sanguinalis, DIGSA)", 98),
    ("CCOC(=O)C(Cl)Cc1cc(Cl)cc(F)c1-n1nc(C)n(C(F)F)c1=O (centres unmarked)", "large crabgrass (Digitaria sanguinalis, DIGSA)", 0),
]

Give Post-emerge Herbicidal Activity, phytotoxicity rating DIGSA for each of the items listed below.
1. CCOC(=O)CCc1c(OC)c(Cl)cc(F)c1-n1c(=O)cc(C(F)(F)F)n(C)c1=O
2. CCCCCOC(=O)C(Cl)Cc1c(OC)c(Cl)cc(F)c1-n1c(=O)cc(C(F)(F)F)n(C)c1=O (single isomer, unassigned)
3. COc1c(Cl)cc(F)c(-n2c(=O)cc(C(F)(F)F)n(C)c2=O)c1CC(C)(Cl)C(=O)OCC1CCCO1 (centres unmarked)
4. COc1c(Cl)cc(F)c(-n2c(=O)cc(C(F)(F)F)n(C)c2=O)c1CC(Cl)C(=O)OCCOc1ccccc1 (single isomer, unassigned) [14-28]
5. COc1c(Cl)cc(F)c(-n2c(=O)cc(C(F)(F)F)n(C)c2=O)c1CC(Cl)C(=O)OCC(Br)CBr (single isomer, unassigned) [14-31]
6. COc1c(Cl)cc(F)c(-n2c(=O)cc(C(F)(F)F)n(C)c2=O)c1CC(Cl)C(=O)OCC(C)C (single isomer, unassigned)
7. C=CCOC(=O)C(C)(Cl)Cc1c(OC)c(Cl)cc(F)c1-n1c(=O)cc(C(F)(F)F)n(C)c1=O (centres unmarked)

Reply:
1: 95; 2: 100; 3: 95; 4: 50; 5: 100; 6: 100; 7: 100

Give Post-emerge Herbicidal Activity, phytotoxicity rating DIGSA for each of the items listed below.
1. COc1c(Cl)cc(F)c(-n2c(=O)cc(C(F)(F)F)n(C)c2=O)c1CC(Cl)C(=O)OCCOc1ccccc1 (single isomer, unassigned) [14-27]
2. COc1c(Cl)cc(F)c(-n2c(=O)cc(C(F)(F)F)n(C)c2=O)c1CC(Cl)C(=O)OCC(Br)CBr (single isomer, unassigned) [14-30]

Reply:
1: 95; 2: 100

====

- System: common ragweed (Ambrosia artemisizfolia L., AMBEL)
- PROTOCOL_DESCRIPTION: Pre-emerge test, greenhouse herbicide activity screening
- Type: in vivo
- REPORTED_CONDITIONS: 250 g ai/ha; pre-emerge; rated 14 days after application; 0 = no damage, 100 = complete death
MEASURED_ATTRIBUTE: Pre-emerge Herbicidal Activity AMBEL (phytotoxicity rating, scale 0-100)
Answers are plain numbers.

Sample answers from the record:
# COMPOUND_STRUCTURE_STRING, REPORTED_VALUE
rows = [
    ("COc1c(Cl)cc(F)c(-n2c(=O)cc(C(F)(F)F)n(C)c2=O)c1N", 100),
    ("COc1c(Cl)cc(F)c(-n2c(=O)c(NC(=O)C(F)(F)F)c(C(F)(F)F)n(C)c2=O)c1NC(=O)C(F)(F)F", 0),
    ("COC(=O)C(=O)Nc1c(OC)c(Cl)cc(F)c1-n1c(=O)cc(C(F)(F)F)n(C)c1=O", 0),
]

Give Pre-emerge Herbicidal Activity AMBEL (phytotoxicity rating, scale 0-100) for each of the items listed below.
1. COc1c(Cl)cc(F)c(-n2c(=O)cc(C(F)(F)F)n(C)c2=O)c1N(C)C
2. CCCc1ccc(C(=O)N(C(=O)c2ccc(CCC)cc2)c2c(OC)c(Cl)cc(F)c2-n2c(=O)cc(C(F)(F)F)n(C)c2=O)cc1
3. COc1c(Cl)cc(F)c(-n2c(=O)cc(C(F)(F)F)n(C)c2=O)c1NC(=O)c1ccc(C(C)(C)C)cc1
4. COc1c(Cl)cc(F)c(-n2c(=O)cc(C(F)(F)F)n(C)c2=O)c1NC(C)=O

Reply:
[100, 60, 0, 100]

====

- System: large crabgrass (Digitaria sanguinalis, DIGSA)
- PROTOCOL_DESCRIPTION: Post-emerge test, greenhouse herbicide activity screening
- Type: in vivo
- REPORTED_CONDITIONS: Rate 250 g ai/ha; rating scale 0-100 (0 no damage, 100 complete death); 14 days after application
MEASURED_ATTRIBUTE: Post-emerge Herbicidal Activity, phytotoxicity rating DIGSA
Answers are plain numbers.

# MOLECULE, TESTED_SYSTEM, REPORTED_VALUE
records = [
    ("COc1c(Cl)cc(F)c(-n2c(=O)cc(C(F)(F)F)n(C)c2=O)c1CC(C)(Cl)C(=O)OC(C)C (stereo not drawn) [14-39]", "large crabgrass (Digitaria sanguinalis, DIGSA)", 100),
    ("O=C(Nc1cc(Cl)ccc1N1C(=O)c2ccccc2C1=O)c1ccc2ccccc2c1 [Compound 13-5]", "large crabgrass (Digitaria sanguinalis, DIGSA)", 20),
]

Moving on to the next molecule.
Task item: Recall the reported Post-emerge Herbicidal Activity, phytotoxicity rating DIGSA of CCCOC(=O)C(Cl)Cc1c(OC)c(Cl)cc(F)c1-n1c(=O)cc(C(F)(F)F)n(C)c1=O (single isomer, unassigned) [14-7] on large crabgrass (Digitaria sanguinalis, DIGSA) and write it down.
Reply: 100

====

Hi there, I'd appreciate the recorded DIGSA phytotoxicity rating for every entry that follows.
- Test system: large crabgrass (Digitaria sanguinalis, DIGSA)
- PROTOCOL_DESCRIPTION: Post-emerge test, greenhouse herbicide activity screening
- Format: in vivo
- REPORTED_CONDITIONS: post-emerge, 63 g ai/ha, 14 days after application, rating scale 0-100

# COMPOUND, MEASURED_ATTRIBUTE, REPORTED_VALUE
records = [
    ("Cn1c(C(F)(F)F)cc(=O)n(-c2ccc(Cl)cc2NC(=O)C=Cc2ccccc2)c1=O [2-137]", "DIGSA phytotoxicity rating", 0),
    ("N#CCOc1c(Cl)cc(F)c(-n2c(=O)cc(C(F)(F)F)n(N)c2=O)c1NC(=O)c1ccc2ccccc2c1 [2-188]", "DIGSA phytotoxicity rating", 0),
    ("Cn1c(C(F)(F)F)cc(=O)n(-c2c(F)cc(Cl)cc2NC2CC2)c1=O [2-147]", "DIGSA phytotoxicity rating", 20),
    ("CCOC(=O)C(C)SCC(=O)Nc1c(OC)c(Cl)cc(F)c1-n1c(=O)cc(C(F)(F)F)n(C)c1=O (stereo not drawn) [2-171]", "DIGSA phytotoxicity rating", 0),
    ("COc1c(Cl)cc(F)c(-n2c(=O)cc(C(F)(F)F)n(C)c2=O)c1NC(=O)COc1ccc(F)cc1 [2-133]", "DIGSA phytotoxicity rating", 30),
]

Moving on to the next compound.
Task item: Item Cn1c(C(F)(F)F)cc(=O)n(-c2c(F)cc(Cl)cc2NC(=O)c2ccc3ccccc3c2)c1=O [Compound 2-145] : provide DIGSA phytotoxicity rating
Reply: 0

====

- Test system: barnyardgrass (Echinochloa crus-galli, ECHCG)
- PROTOCOL_DESCRIPTION: Post-emerge test, greenhouse herbicide activity screening
- Type: in vivo
- REPORTED_CONDITIONS: Echinochloa crus-galli, post-emergence, 336 h; post-emerge, 63 g ai/ha, phytotoxicity rating 0-100 at 14 days after application; read-out: Post-emerge Herbicidal Activity ECHCG
MEASURED_ATTRIBUTE: pest or weed control at 63 g/ha (%)
Numbers only, in %.

# COMPOUND_STRUCTURE_STRING, pest or weed control at 63 g/ha, %
measured = [
    ("COc1c(Cl)cc(Cl)c(-n2nc(C)n(C(F)F)c2=O)c1NC(=O)c1ccc2ccccc2c1", 0),
    ("COc1c(Cl)cc(F)c(-c2nn(C)c(C(F)(F)F)c2Cl)c1NC(=O)C=Cc1ccccc1", 0),
    ("COc1c(Cl)cc(F)c(-c2nn(C)c(C(F)(F)F)c2Cl)c1N", 30),
    ("Cc1nn(-c2c(Cl)cc(Cl)c(N)c2N)c(=O)n1C(F)F", 0),
]

Task item: Recall the reported pest or weed control at 63 g/ha of CC(C)Oc1c(Cl)cc(F)c(N2C(=O)C3=C(CCCC3)C2=O)c1N on barnyardgrass (Echinochloa crus-galli, ECHCG) and write it down.
Reply: 0
